Kindly supply the reported GI50 values for the records listed here.
- Tested on: T-Rex 293 cell line SC3 cells lacking increased expression of androgen receptor protein
- Method summary: Cellular growth inhibition, T-Rex 293 SC3 cells without doxycycline, CellTiter-Glo
- Type: cell-based
- Condition context: 72 h, T-Rex 293 SC3 cells not exposed to doxycycline, CellTiter-Glo 2.0

Field GI50 (T-Rex 293 cell line SC3 cells lacking increased expression of androgen receptor protein), entry `Cc1sc2c(c1C)C(c1ccc(OCC[C@H]3CCCN(c4ncc(C(=O)N[C@H]5C(C)(C)[C@H](Oc6ccc(C#N)c(Cl)c6)C5(C)C)cn4)C3)cc1)=N[C@@H](Cc1ncco1)c1nnc(C)n1-2` : 0.5 to 1.5 µM

The reported T-Rex 293 cell line SC3 cells lacking increased expression of androgen receptor protein GI50 of `CCN(C)C(=O)C[C@@H]1N=C(c2ccc(CCCOC3CCN(c4ncc(C(=O)N[C@H]5C(C)(C)[C@H](Oc6ccc(C#N)c(Cl)c6)C5(C)C)cn4)CC3)cc2)c2c(sc(C)c2C)-n2c(C)nnc21` is > 3 µM

# `COCC[C@@H]1N=C(c2ccc(N3CC(C4CCN(c5ncc(C(=O)N[C@H]6C(C)(C)[C@H](Oc7ccc(C#N)c(Cl)c7)C6(C)C)cn5)CC4)C3)cc2)c2c(sc(C)c2C)-n2c(C)nnc21` with T-Rex 293 cell line SC3 cells lacking increased expression of androgen receptor protein: GI50 is > 3 µM

Hey, T-Rex 293 cell line SC3 cells lacking increased expression of androgen receptor protein data for `Cc1sc2c(c1C)C(c1ccc(CCCN(C)C(=O)c3ncc(C(=O)N[C@H]4C(C)(C)[C@H](Oc5ccc(C#N)c(Cl)c5)C4(C)C)cn3)cc1)=N[C@@H](Cc1ncco1)c1nnc(C)n1-2` : GI50 came out at > 3 µM

T-Rex 293 cell line SC3 cells lacking increased expression of androgen receptor protein assay, compound `CCNC(=O)C[C@@H]1N=C(c2cccc(OCCOCCOCCOC3CCN(c4ncc(C(=O)N[C@H]5C(C)(C)[C@H](Oc6ccc(C#N)c(Cl)c6)C5(C)C)cn4)CC3)c2)c2c(sc(C)c2C)-n2c(C)nnc21` , recorded GI50 = 0.5 to 1.5 µM

Bench note, T-Rex 293 cell line SC3 cells lacking increased expression of androgen receptor protein: entry `Cc1sc2c(c1C)C(c1ccc(CNC(=O)NCc3ncc(C(=O)N[C@H]4C(C)(C)[C@H](Oc5ccc(C#N)c(Cl)c5)C4(C)C)cn3)cc1)=N[C@@H](Cc1ncco1)c1nnc(C)n1-2` , its GI50 = > 3 µM

Measured on T-Rex 293 cell line SC3 cells lacking increased expression of androgen receptor protein, `Cc1sc2c(c1C)C(c1ccc(N3C[C@@H]4[C@H](C3)[C@H]4Nc3ncc(C(=O)N[C@H]4C(C)(C)[C@H](Oc5ccc(C#N)c(Cl)c5)C4(C)C)cn3)cc1)=N[C@@H](Cc1ncco1)c1nnc(C)n1-2` has a documented GI50 of < 0.5 µM

I looked up CCNC(=O)C[C@@H]1N=C(c2ccc(OC3CC(OC4CCN(c5ncc(C(=O)N[C@H]6C(C)(C)[C@H](Oc7ccc(C#N)c(Cl)c7)C6(C)C)cn5)CC4)C3)cc2)c2c(sc(C)c2C)-n2c(C)nnc21 (stereo partly drawn) and its GI50 for T-Rex 293 cell line SC3 cells lacking increased expression of androgen receptor protein was 0.5 to 1.5 µM

// GI50 (T-Rex 293 cell line SC3 cells lacking increased expression of androgen receptor protein) for Cc1sc2c(c1C)C(c1ccc(N[C@H]3CCN(c4ncc(C(=O)N[C@H]5C(C)(C)[C@H](Oc6ccc(C#N)c(Cl)c6)C5(C)C)cn4)C3)cc1)=NC(Cc1ncco1)c1nnc(C)n1-2 (stereo partly drawn) = < 0.5 µM

Hey, T-Rex 293 cell line SC3 cells lacking increased expression of androgen receptor protein data for Cc1sc2c(c1C)C(c1ccc(N3CCC(C)(CNc4ncc(C(=O)N[C@H]5C(C)(C)[C@H](Oc6ccc(C#N)c(Cl)c6)C5(C)C)cn4)CC3)cc1)=NC(Cc1ncco1)c1nnc(C)n1-2 (stereo partly drawn) : GI50 came out at < 0.5 µM

Bench note, T-Rex 293 cell line SC3 cells lacking increased expression of androgen receptor protein: `Cc1sc2c(c1C)C(c1ccc(O[C@H]3C[C@]4(CCCN(c5ncc(C(=O)N[C@H]6C(C)(C)[C@H](Oc7ccc(C#N)c(Cl)c7)C6(C)C)cn5)C4)C3)cc1)=N[C@@H](C)c1nnc(C)n1-2` , GI50 reads > 3 µM

Lab note: compound `[2H]C([2H])(c1ccc(C2=N[C@@H](Cc3ncco3)c3nnc(C)n3-c3sc(C)c(C)c32)cc1)N1CC[C@@]2(CCCN(c3ncc(C(=O)N[C@H]4C(C)(C)[C@H](Oc5ccc(C#N)c(Cl)c5)C4(C)C)cn3)C2)C1` tested on T-Rex 293 cell line SC3 cells lacking increased expression of androgen receptor protein; recorded GI50 was < 0.5 µM

For the compound `Cc1sc2c(c1C)C(c1ccc(Cl)cc1)=N[C@@H](CC(=O)NCCCOCCOC1CCN(c3ncc(C(=O)N[C@H]4C(C)(C)[C@H](Oc5ccc(C#N)c(Cl)c5)C4(C)C)cn3)CC1)c1nnc(C)n1-2` , the measured GI50 on T-Rex 293 cell line SC3 cells lacking increased expression of androgen receptor protein was 0.5 to 1.5 µM

T-Rex 293 cell line SC3 cells lacking increased expression of androgen receptor protein GI50 of `Cc1sc2c(c1C)C(c1ccc([C@H]3C[C@H]([C@H]4CCN(c5ncc(C(=O)N[C@H]6C(C)(C)[C@H](Oc7ccc(C#N)c(Cl)c7)C6(C)C)cn5)C4)C3)cc1)=N[C@H](Cc1ncco1)c1nnc(C)n1-2` is < 0.5 µM

Reported T-Rex 293 cell line SC3 cells lacking increased expression of androgen receptor protein GI50 for item `Cc1sc2c(c1C)C(c1ccc(OCCOC3CCN(c4ncc(C(=O)N[C@H]5C(C)(C)[C@H](Oc6ccc(C#N)c(Cl)c6)C5(C)C)cn4)CC3)cc1)=N[C@@H](CC(=O)NC(C)C)c1nnc(C)n1-2` was < 0.5 µM

T-Rex 293 cell line SC3 cells lacking increased expression of androgen receptor protein data for `CCNC(=O)C[C@@H]1N=C(c2ccc(CCCC3CCN(c4ncc(C(=O)N[C@H]5C(C)(C)[C@H](Oc6ccc(C#N)c(Cl)c6)C5(C)C)cn4)CC3)cc2)c2c(sc(C)c2C)-n2c(C)nnc21` ; its GI50: < 0.5 µM

So the reported GI50 for `Cc1sc2c(c1C)C(c1ccc(C(=O)N3CCN(Cc4ncc(C(=O)N[C@H]5C(C)(C)[C@H](Oc6ccc(C#N)c(Cl)c6)C5(C)C)cn4)CC3)cc1)=N[C@H](Cc1ncco1)c1nnc(C)n1-2` , on T-Rex 293 cell line SC3 cells lacking increased expression of androgen receptor protein, turned out to be > 3 µM

Response field GI50 (T-Rex 293 cell line SC3 cells lacking increased expression of androgen receptor protein) for item `CCNC(=O)C[C@@H]1N=C(c2ccc(OCCOC3CCN(c4ncc(C(=O)N[C@H]5C(C)(C)[C@H](Oc6ccc(C#N)c(Cl)c6)C5(C)C)cn4)CC3)cc2F)c2c(sc(C)c2C)-n2c(C)nnc21` : 0.5 to 1.5 µM
